- Tested on: Calu-6 (Non-Small Cell Lung Carcinoma)
- assay overview: combination Emax (second highest fraction inhibited in the dose matrix, 72 h); higher = more inhibition; extreme values may be limits of the assay
Documented combination Emax across a set of molecules
Lab note: write the figure by itself, no unit.

>  <molecule>
CN(CCO)CC[C@H](CSc1ccccc1)Nc1ccc(S(=O)(=O)NC(=O)c2ccc(N3CCC([C@@H](O)c4ccccc4-c4ccc(Cl)cc4)CC3)cc2)cc1S(=O)(=O)C(F)(F)F [AZD4320] + C[C@@H]1COCCN1C2=NC(=NC(=C2)C3(CC3)[S@](=N)(=O)C)C4=C5C=CNC5=NC=C4 [AZD6738] (first compound max 1 µM, 7x7, partner max 10 µM)

>  <combination Emax>
0.891

$$$$
>  <molecule>
NC1(C(=O)N[C@@H](CCO)c2ccc(Cl)cc2)CCN(c2ncnc3[nH]ccc23)CC1 [Capivasertib] + Cn1cnc2c(F)c(Nc3ccc(Br)cc3Cl)c(C(=O)NOCCO)cc21 [Selumetinib] (first compound max 10 µM, 7x7, partner max 10 µM)

>  <combination Emax>
0.707

$$$$
>  <molecule>
CC1(C)CCC(CN2CCN(c3ccc(C(=O)NS(=O)(=O)c4ccc(NCC5CCOCC5)c([N+](=O)[O-])c4)c(Oc4cnc5[nH]ccc5c4)c3)CC2)=C(c2ccc(Cl)cc2)C1 [Venetoclax] + CCN(CCO)CCCOc1ccc2c(Nc3cc(CC(=O)Nc4cccc(F)c4)[nH]n3)ncnc2c1 [AZD2811] (first compound max 1 µM, 7x7, partner max 1 µM)

>  <combination Emax>
0.346

$$$$

Next:
molecule COc1cccc(OCCCN)c1-c1cc(Nc2cnc(C#N)cn2)n[nH]1 [Prexasertib] + CN(C)CCCOc1ccc(-c2ccc3ncc4c(c3c2)n(C2CCOCC2)c(=O)n4C)cn1 [AZD0156] (first compound max 1 µM, 7x7, partner max 1 µM) , combination Emax observed: 0.745

The values you see were collected from the supplement of paper PMC11061612.
